Where these numbers come from: patent US9475815B2

# Tested on: Human umbilical vein endothelial cells (HUVEC)
# ASSAY_TEXT: Inhibition of growth factor-mediated cell proliferation (hFGF-2)
# Format: cell-based
# MEASUREMENT_CONTEXT: Homo sapiens, HUVEC, 72 h, 72 h exposure, hFGF-2 stimulated; from averaged pIC50 values
Counter-ions that a name gives are not always drawn.
Listing of entries alongside the reported IC50.
Please give a number only; it is taken to be in nM.

IN: Record COc1cc(C)cc2cc(-c3cc(CN4CCC(N(C)C)C4)n4ncnc(N)c34)sc12 (centres unmarked) [Example 42] : what is its IC50 with Human umbilical vein endothelial cells (HUVEC)?
OUT: 130

IN: And the next one, COc1cc(C)cc2cc(-c3cc(C(=O)N4CCC[C@](C)(N)C4)n4ncnc(N)c34)sc12 [Example 105] ?
OUT: 137

IN: What do you have for CCN(CC)C1CCN(Cc2cc(-c3cc4cc(C)cc(OC)c4s3)c3c(N)ncnn23)C1 (centres unmarked) [Example 19] ?
OUT: 277

IN: // next record COc1cc(C)cc2cc(-c3cc(CN4CCNC(=O)C4)n4ncnc(N)c34)sc12 [Example 8, dihydrochloride]
OUT: 370

IN: Check COc1cc(C)cc2cc(-c3cc(CNCC(N)=O)n4ncnc(N)c34)sc12 [Example 18] too.
OUT: 155
